Assay: Half-life in murine serum
Type: in vitro ADME
Conditions: mouse
Ends that are not written are not given here.
attribute.measured: half-life (min)
Numbers only, in min.

Q: Request the reported half-life associated with NGRKAKLNPASIVKKIIKKILKS-NH2 [NF27]
Result: 29

----------
Test system: SUM149 cells
Assay: LDH assay, SUM149 cells
Format: cell-based, human
Settings: read-out: EC50 SUM149, Fig. 2B, 2 h, representative of N = 3
Ends that are not written are not given here.
attribute.measured: EC50 (µM)
Answers are plain numbers, in µM.

Q: Look up EC50: NGRKAKLNPASIVKKIIKKILKS-NH2 [NF27]
Result: 6.6

----------
Test: Solubility in water
Type: physicochemical
Conditions: water
Ends that are not written are not given here.
attribute.measured: solubility

Q: Recorded solubility for NGRKAKLNPASIVKKIIKKILKS-NH2 [NF27] , please?
Result: ≥ 40 mM

----------
System: MCA205 murine fibrosarcoma cells
Experiment: LDH assay, MCA205 cells
Format: cell-based
Settings: read-out: EC50 MCA205, Fig. 2A, 2 h, representative of N = 3
Ends that are not written are not given here.
attribute.measured: pEC50
One number for each entry, as −log10 of the molar value.

Q: Would you kindly share the measured pEC50 for NGRKAKLNPASIVKKIIKKILKS-NH2 [NF27] ?
Result: 4.98
